# measurement notes: clinical
# stated conditions: human, plasma, sc, 120 mg
endpoint label: concentration at 24 h (ng/mL)

>>> value_reported("O=C(c1ccccc1)c1ccc2n1CCC2C(=O)O (racemic)")
1170

---

# measurement notes: clinical
# stated conditions: human, plasma, sc, 120 mg
endpoint label: AUC(0-t)

>>> value_reported("O=C(c1ccccc1)c1ccc2n1CCC2C(=O)O (racemic) [Ketorolac]")
"21500 ng·h/mL"

---

# measurement notes: clinical
# stated conditions: human, plasma, sc, 120 mg
endpoint label: concentration at 12 h (ng/mL)

>>> value_reported("O=C(c1ccccc1)c1ccc2n1CCC2C(=O)O (racemic)")
946

---

# measurement notes: clinical
# stated conditions: human, plasma, sc, 120 mg
endpoint label: AUC(0-inf) (ng·h/mL)

>>> value_reported("O=C(c1ccccc1)c1ccc2n1CCC2C(=O)O (racemic)")
29100

---

# measurement notes: clinical
# stated conditions: human, plasma, im, 30 mg
endpoint label: AUC(0-t) (ng·h/mL)

>>> value_reported("O=C(c1ccccc1)c1ccc2n1CCC2C(=O)O (racemic)")
23600

---

# measurement notes: clinical
# stated conditions: human, plasma, sc, 120 mg
endpoint label: concentration at 20 h (ng/mL)

>>> value_reported("O=C(c1ccccc1)c1ccc2n1CCC2C(=O)O (racemic)")
1210

---

# measurement notes: clinical
# stated conditions: human, plasma, 120 mg
endpoint label: half-life

>>> value_reported("O=C(c1ccccc1)c1ccc2n1CCC2C(=O)O (racemic)")
"~7 h"

---

# measurement notes: clinical
# stated conditions: human, plasma, sc, 120 mg
endpoint label: concentration at 14 h (ng/mL)

>>> value_reported("O=C(c1ccccc1)c1ccc2n1CCC2C(=O)O (racemic)")
1020

---

# measurement notes: clinical
# stated conditions: human, plasma, im, 30 mg
endpoint label: Vd/F (L)

>>> value_reported("O=C(c1ccccc1)c1ccc2n1CCC2C(=O)O (racemic)")
30.3

---

# measurement notes: clinical
# stated conditions: human, plasma, sc, 120 mg
endpoint label: concentration at 16 h (ng/mL)

>>> value_reported("O=C(c1ccccc1)c1ccc2n1CCC2C(=O)O (racemic) [Ketorolac]")
1050

---

# measurement notes: clinical
# stated conditions: human, plasma, im, 30 mg
endpoint label: Tmax (h)

>>> value_reported("O=C(c1ccccc1)c1ccc2n1CCC2C(=O)O (racemic)")
9.25

---

# measurement notes: clinical
# stated conditions: human, plasma, im, 30 mg
endpoint label: Cmax

>>> value_reported("O=C(c1ccccc1)c1ccc2n1CCC2C(=O)O (racemic)")
"2240 ng/mL"

---

# measurement notes: clinical
# stated conditions: human, plasma, sc, 120 mg
endpoint label: Tmax (h)

>>> value_reported("O=C(c1ccccc1)c1ccc2n1CCC2C(=O)O (racemic) [Ketorolac]")
23

---

# measurement notes: clinical
# stated conditions: human, plasma, sc, 120 mg
endpoint label: concentration at 4 h (ng/mL)

>>> value_reported("O=C(c1ccccc1)c1ccc2n1CCC2C(=O)O (racemic)")
617

---

# measurement notes: clinical
# stated conditions: human, plasma, sc, 120 mg
endpoint label: concentration at 6 h (ng/mL)

>>> value_reported("O=C(c1ccccc1)c1ccc2n1CCC2C(=O)O (racemic)")
718

---

# measurement notes: clinical
# stated conditions: human, plasma, sc, 120 mg
endpoint label: concentration at 23 h (ng/mL)

>>> value_reported("O=C(c1ccccc1)c1ccc2n1CCC2C(=O)O (racemic) [Ketorolac]")
1230
